# assay_setup: Ebola virus entry assay, blue channel fluorescence
The source made the active and inactive calls. The rule behind the calls is not given here.
Outcome codes: active, inactive

>>> print(df.to_string())
                                    compound  answer_label
 0                           COC(=O)c1cccnc1      inactive
 1  CC(C)(C)CC(C)(C)c1ccc(O)c(-n2nc3ccccc3n2)c1      inactive
 2  NS(=O)(=O)c1cc2c(cc1C(F)(F)F)NC(Cc1ccccc1)NS2(=O)=O (stereo not drawn)      inactive
 3           Cc1nnc(NS(=O)(=O)c2ccc(N)cc2)s1      inactive
 4  NC(Cc1ccc(Cl)cc1)C(=O)O (stereo not drawn)      inactive
 5           CNCCCC12CCC(c3ccccc31)c1ccccc12        active
 6                            O=C(O)Cn1cnnn1      inactive
 7  Cc1c(NC(=O)c2cccnc2)c(=O)n(-c2ccccc2)n1C      inactive
 8              CC(C)(CO)[C@@H](O)C(=O)NCCCO      inactive
 9                      CC(=O)OCC[N+](C)(C)C      inactive
10  CN1C(CSCC(F)(F)F)Nc2cc(Cl)c(S(N)(=O)=O)cc2S1(=O)=O (stereo not drawn)      inactive
11  CO[C@@]1(NC(=O)CSC[C@@H](N)C(=O)O)C(=O)N2C(C(=O)O)=C(CSc3nnnn3C)CS[C@@H]21      inactive
12  C=CCC1(C(C)CC)C(=O)NC(=O)NC1=O (stereo not drawn)      inactive
13                        Cc1cccc(C(=O)O)c1O      inactive
14  C[C@H](NC(CCc1ccccc1)C(=O)O)C(=O)N1CCC[C@H]1C(=O)O (stereo partly drawn)      inactive
15  CCCC(=O)OCOC(=O)C1=C(C)NC(C)=C(C(=O)OC)C1c1cccc(Cl)c1Cl (stereo not drawn)      inactive
16         COc1ccc(NS(=O)(=O)c2ccc(N)cc2)nn1      inactive
17      CC(C)(C)NC[C@H](O)COc1cccc2c1CCCC2=O      inactive
18  O=C(CCCN1CCC2(CC1)C(=O)NCN2c1ccccc1)c1ccc(F)cc1        active
19  Cc1ccccc1C(=O)N1CC/C(=N\OS(=O)(=O)O)c2ccc(Cl)cc21      inactive
20  O=C(O)c1[nH]n(-c2ccc(S(=O)(=O)O)cc2)c(=O)c1N=Nc1ccc(S(=O)(=O)O)cc1      inactive
21  Cc1ccc(-c2ncc(Cl)cc2-c2ccc(S(C)(=O)=O)cc2)cn1      inactive
22            c1ccc(-c2nc[nH]c2-c2ccccc2)cc1        active
23  Cc1cc(OI)c(C(C)C)cc1-c1cc(C(C)C)c(OI)cc1C      inactive
24  CN1C(C(=O)Nc2ccccn2)=C(O)c2sccc2S1(=O)=O      inactive
25  CCCC(=O)O[C@]1(C(=O)CO)CC[C@H]2[C@@H]3CCC4=CC(=O)CC[C@]4(C)[C@H]3[C@@H](O)C[C@@]21C      inactive
26                O=C(O)Cc1ccc(-c2ccccc2)cc1      inactive
27    O=C(O)Cc1cn(-c2ccccc2)nc1-c1ccc(Cl)cc1      inactive

====

# protocol_notes: Primary qHTS for Huh7 cytotoxicity: counterscreen for inhibitors of MERS-S pseudotyped particle cell entry (AID 1479147)
# assay_setup: cell viability read-out; series mostly up to 57.1 µM
Records with an inconclusive call do not appear. The source made the active and inactive calls. The call rests on the fitted dose curve.
property_measured: outcome

>>> df
                                    molecule  property_measured  test_result
 0  CC[C@@]1(O)C(=O)OCc2c1cc1n(c2=O)Cc2c-1nc1ccccc1c2/C=N/OC(C)(C)C            outcome     inactive
 1  C[C@@H]1CC2=CC(=O)CC[C@@H]2[C@H]2CC[C@@]3(C)[C@@H](CC[C@]3(C)O)[C@@H]21            outcome     inactive
 2  CCCCCCCCCCCCCCCCCC(=O)OCC(O)CO (configuration not stated)            outcome     inactive
 3  OC[C@H]1O[C@H](O[C@]2(CCl)O[C@H](CCl)[C@@H](O)[C@@H]2O)[C@H](O)[C@@H](O)[C@H]1Cl            outcome     inactive
 4  CCCc1c2oc(C(=O)O)cc(=O)c2cc2c(=O)cc(C(=O)O)n(CC)c12            outcome     inactive
 5  CO[C@@]1(NC(=O)Cc2cccs2)C(=O)N2C(C(=O)O)=C(COC(N)=O)CS[C@@H]21            outcome     inactive
 6  C[N+]1(C)CCCC(OC(=O)C(O)(c2ccccc2)c2ccccc2)C1 (configuration not stated)            outcome     inactive
 7  Nc1nc2[nH]cc(CCc3ccc(C(=O)N[C@@H](CCC(=O)O)C(=O)O)cc3)c2c(=O)[nH]1            outcome     inactive
 8  CC1(C)O[C@@H]2C[C@H]3[C@@H]4CCC5=CC(=O)C=C[C@]5(C)[C@@H]4[C@@H](O)C[C@]3(C)[C@]2(C(=O)CO)O1            outcome     inactive
 9             Nc1nc(N)nc(-c2cc(Cl)ccc2Cl)n1            outcome     inactive
10              O=C1CC[C@H](C(=O)N2CCCCC2)N1            outcome     inactive
11                  Clc1ccc2nsnc2c1NC1=NCCN1            outcome     inactive
12             O=C(Oc1ccccc1C(=O)O)c1ccccc1O            outcome     inactive
13       Cc1cc(NS(=O)(=O)c2ccc(N)cc2)nc(C)n1            outcome     inactive
14  OC[C@@H](O)[C@@H](O[C@@H]1O[C@H](CO)[C@H](O)[C@H](O)[C@H]1O)[C@H](O)[C@@H](O)CO            outcome     inactive
15  CCCCC(CC)CN1CN(CC(CC)CCCC)CC(C)(N)C1 (configuration not stated)            outcome     inactive
16  CCCc1nc(C(C)(C)O)c(C(=O)OCc2oc(=O)oc2C)n1Cc1ccc(-c2ccccc2-c2nn[nH]n2)cc1            outcome     inactive
17                             COc1ccc(O)cc1            outcome     inactive
18              CC(=O)N=c1sc(S(N)(=O)=O)nn1C            outcome     inactive
19  CCN1C(=O)NC(c2ccccc2)C1=O (configuration not stated)            outcome     inactive
20                       CCCCCCCCCCCCSCCOCCO            outcome     inactive
21  Cc1ccccc1OCC(O)CO (configuration not stated)            outcome     inactive

====

# protocol_notes: Primary qHTS to identify inhibitors of SARS-CoV-2 cell entry (AID 1645846); note: nearly all actives have a fitted effect of over 45% in size
# assay_setup: SARS-CoV-2 pseudovirus cell entry assay, luminescence; at 57.1 µM (top of the series) unless noted
Records with an inconclusive call do not appear.
activity change, negative = inhibition overview
property_measured: activity change, negative = inhibition (%)

In [3]: df
Out[3]:
                                   compound  unit_tag  test_result
0                       CCCCCCCCCCCCCCCCCCO         %        0.247
1           Cc1cccc(C)c1NC(=O)CC12CCCN1CCC2         %        -23.5
2  COc1cc(C(=O)NC2CCCNC2)cc(OC)c1OC (stereo unspecified)         %        -15.8
3  CC(C)(C)NCC(O)COc1ccccc1OCC1CCCO1 (stereo unspecified)         %         4.08
4                   Cc1ccsc1/C=C/C1=NCCCN1C         %        -11.3
5  C[C@]12C=CC(=O)C=C1CC[C@@H]1[C@@H]2[C@@H](O)C[C@@]2(C)[C@H]1CC[C@]2(O)C(=O)CO         %        -3.66

====

# Test system: CP268
# protocol_notes: qHTS profiling for inhibitors of Plasmodium falciparum proliferation (AID 504749);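 note: 0% = DMSO vehicle and full inhibition = artemisinin control; nearly all actives have a fitted effect of over 60% in size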
# assay_setup: P. falciparum in erythrocytes, SYBR Green DNA, 72 h; series mostly up to 28.7 µM
Records with an inconclusive call do not appear. The source made the active and inactive calls. Calls follow the shape of the dose curve; as a rule, active = well fitted inhibition curve with a large enough effect; inconclusive = small, poorly fitted or top-dose-only effect; inactive = flat fitted curve, though single readings scatter.
property_measured: activity, negative = inhibition

In [3]: df
Out[3]:
                                   molecule                property_measured                     test_result
0  CCC1(c2ccccc2)C(=O)N(COC)C(=O)N(COC)C1=O  activity, negative = inhibition                        inactive
1  CC(C)(C)NCC(O)c1ccccc1Cl (centres undefined)  activity, negative = inhibition                        inactive
2  CCCCC/C=C\C/C=C\C/C=C\C/C=C\CCCC(=O)NCC(=O)O  activity, negative = inhibition  -7.02% [at 2.67 µM] (inactive)
3                              Cc1ncsc1CCCl  activity, negative = inhibition                        inactive
